Hello, the source for this data is patent US20250304650A1, in case you need it.

- Assay target: feline FcRn (FCN-F82W3, Acrobiosystems) (feline)
- Test name: SPR Carterra, IgG coupled, pH 6.0
Entries and their measured Kd follow.
Form entry: value (nM) — number only.

Study these solved cases before continuing.
- Binder: "anti-NGF feline IgG1a, Fc variant S428L, Q311K (antibody, part only; not given: anti-NGF variable domains, light chain, not shown: another chain or arm of the molecule; small tags and cut ends) Fc: PPEMLGGPSIFIFPPKPKDTLSISRTPEVTCLVVDLGPDDSDVQITWFVDNTQVYTAKTSPREEQFNSTYRVVSVLPILHKDWLKGKEFKCKVNSKSLPSPIERTISKAKGQPHEPQVYVLPPAQEELSRNKVSVTCLIKSFHPPDIAVEWEITGQPEPENNYRTTPPQLDSDGTYFVYSKLSVDRSHWQRGNTYTCSVLHEALHSHHTQKSLTQSPGK"
  Measurement name: "Kd"
  Scale unit: "nM"
  Observed measurement: 10.5
- Binder: "anti-NGF feline IgG1a, Fc variant S434Y, K326D (antibody, part only; not given: anti-NGF variable domains, light chain, not shown: another chain or arm of the molecule; small tags and cut ends) Fc: PPEMLGGPSIFIFPPKPKDTLSISRTPEVTCLVVDLGPDDSDVQITWFVDNTQVYTAKTSPREEQFNSTYRVVSVLPILHQDWLKGKEFKCKVNSDSLPSPIERTISKAKGQPHEPQVYVLPPAQEELSRNKVSVTCLIKSFHPPDIAVEWEITGQPEPENNYRTTPPQLDSDGTYFVYSKLSVDRSHWQRGNTYTCSVSHEALHYHHTQKSLTQSPGK"
  Measurement name: "Kd"
  Scale unit: "nM"
  Observed measurement: 4

Query string: Give the measured Kd of anti-NGF feline IgG1a, Fc variant R392E (antibody, part only; not given: anti-NGF variable domains, light chain, not shown: another chain or arm of the molecule; small tags and cut ends) Fc: PPEMLGGPSIFIFPPKPKDTLSISRTPEVTCLVVDLGPDDSDVQITWFVDNTQVYTAKTSPREEQFNSTYRVVSVLPILHQDWLKGKEFKCKVNSKSLPSPIERTISKAKGQPHEPQVYVLPPAQEELSRNKVSVTCLIKSFHPPDIAVEWEITGQPEPENNYETTPPQLDSDGTYFVYSKLSVDRSHWQRGNTYTCSVSHEALHSHHTQKSLTQSPGK .
Result string: 24.5
